Source: patent US20240228482A1

assay-system: CBL-B (Homo sapiens, UniProt Q13191)
Construct: GST
Sequence (Q13191 whole entry): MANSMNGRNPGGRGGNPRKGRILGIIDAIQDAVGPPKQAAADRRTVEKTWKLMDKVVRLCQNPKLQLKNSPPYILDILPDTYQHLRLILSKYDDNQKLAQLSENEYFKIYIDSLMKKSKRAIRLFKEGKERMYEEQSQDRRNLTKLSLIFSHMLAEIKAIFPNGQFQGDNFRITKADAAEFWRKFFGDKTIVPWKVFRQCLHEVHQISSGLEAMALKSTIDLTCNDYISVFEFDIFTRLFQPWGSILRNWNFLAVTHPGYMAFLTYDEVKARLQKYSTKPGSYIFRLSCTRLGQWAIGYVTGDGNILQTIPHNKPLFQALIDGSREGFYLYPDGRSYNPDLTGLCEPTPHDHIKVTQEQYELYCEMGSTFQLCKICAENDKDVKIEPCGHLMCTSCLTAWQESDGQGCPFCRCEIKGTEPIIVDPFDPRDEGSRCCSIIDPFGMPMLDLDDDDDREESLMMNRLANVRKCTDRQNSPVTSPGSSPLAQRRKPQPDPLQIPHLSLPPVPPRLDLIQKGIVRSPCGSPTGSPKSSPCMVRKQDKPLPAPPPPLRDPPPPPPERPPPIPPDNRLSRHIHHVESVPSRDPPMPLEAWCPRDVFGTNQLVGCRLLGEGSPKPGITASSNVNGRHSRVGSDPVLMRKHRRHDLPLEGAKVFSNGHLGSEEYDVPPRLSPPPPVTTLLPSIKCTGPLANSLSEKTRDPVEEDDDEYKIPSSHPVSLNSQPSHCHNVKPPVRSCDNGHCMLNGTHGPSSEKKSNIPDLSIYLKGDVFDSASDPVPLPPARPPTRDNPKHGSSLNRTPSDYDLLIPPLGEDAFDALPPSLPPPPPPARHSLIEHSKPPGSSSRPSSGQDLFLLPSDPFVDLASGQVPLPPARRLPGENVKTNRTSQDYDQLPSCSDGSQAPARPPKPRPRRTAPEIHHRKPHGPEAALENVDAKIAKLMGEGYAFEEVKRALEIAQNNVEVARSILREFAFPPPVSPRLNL
assay-name: CBL-B TR-FRET IC50 screening (E1/E2 ubiquitination, Biotin-Ubiquitin, Anti GST-Tb donor / Streptavidin-d2 acceptor)
Assay type: biochemical
test-parameters: second part of Table 2 (head 'Patent Cmpd No / Updated Activity'); same CBL-B TR-FRET IC50 bins A-F; read-out: Updated Activity
experimental-readout: IC50

compound	IC50
C[C@H]1CCCN(Cc2cc(C(F)(F)F)c3cn(-c4csc([C@H](c5nncn5C)C5CCC5)c4)c(=O)n3c2)C1 [Compound 550_P2]	< 0.1 µM
Cn1cnnc1[C@@H](c1cccc(-n2cc3c(C(F)(F)F)cc(CN4CCC5CC54)cn3c2=O)c1)C1CCC1 (stereo partly shown) [Compound 528]	< 0.1 µM
CO[C@]1(C)C[C@@](c2cccc(-n3cc4c(C(F)(F)F)cc(CN5CCC[C@H](C)C5)cn4c3=O)c2)(c2nncn2C)C1 (single isomer, unassigned) [Compound 440]	> 10 µM
Cc1cn(CC#N)nc1[C@H](c1cccc(-n2cc3c(C(F)(F)F)cc(CN4CCC[C@H](C)C4)cn3c2=O)c1)C1CCC1 (single isomer, unassigned) [Compound 420]	> 10 µM
Cn1cnnc1[C@@H](c1cc(-c2ccncc2)cc(-n2cc3c(C(F)(F)F)cccn3c2=O)c1)C1CCC1 (single isomer, unassigned) [Compound 446]	> 10 µM
C[C@@H]1CN(Cc2cc(C(F)(F)F)c3cn(-c4cccc([C@H](c5nncn5C)C5CCC5)c4)c(=O)n3c2)CC[C@@H]1O (single isomer, unassigned) [Compound 570]	< 0.1 µM
C[C@@H]1CN(Cc2cc(C(F)(F)F)c3cn(-c4cc(F)cc([C@H](c5nncn5C)C5CCC5)c4)c(=O)n3c2)CCO1 (single isomer, unassigned) [Compound 511]	> 10 µM
Cn1cnnc1[C@@H](c1cc(C#N)cc(-n2cc3c(C(F)(F)F)cccn3c2=O)c1)C1CCC1 (single isomer, unassigned) [Compound 453]	0.301 to 1 µM

Measured IC50, Cn1cnnc1[C@@H](c1cccc(-n2cc3c(C(F)(F)F)cc(CN4CCCCS4(=O)=O)cn3c2=O)c1)C1CCC1 [Compound 543] : < 0.1 µM

Lookup result for Cc1cn(CC#N)nc1[C@@H](c1cccc(-n2cc3c(C(F)(F)F)cc(CN4CCC[C@H](C)C4)cn3c2=O)c1)C1CCC1 (single isomer, unassigned) [Compound 419] ; measured IC50: > 10 µM

Summary for this compound, Cn1cnnc1[C@H](c1cc(C#N)cc(-n2cc3c(C(F)(F)F)cc(CN4CC5(CC5)C4)cn3c2=O)c1)C1CCC1 (single isomer, unassigned) [Compound 560] : IC50 is < 0.1 µM

====

assay-system: CBL-B (Homo sapiens, UniProt Q13191)
Construct: GST
assay-name: CBL-B TR-FRET IC50 screening (E1/E2 ubiquitination, Biotin-Ubiquitin, Anti GST-Tb donor / Streptavidin-d2 acceptor)
Assay type: biochemical
test-parameters: second part of Table 2 (head 'Patent Cmpd No / Updated Activity'); same CBL-B TR-FRET IC50 bins A-F; read-out: Updated Activity
Parameter: IC50. Scope: all listed entries.

Reported IC50 (CBL-B (Homo sapiens, UniProt Q13191)) for entry CC(=O)NCc1cc([C@H](c2nncn2C)C2CCC2)cc(-n2cc3c(C(F)(F)F)cccn3c2=O)c1 (single isomer, unassigned) is 3000 to 10000 nM

The recorded IC50 with CBL-B (Homo sapiens, UniProt Q13191) for `Cn1cnnc1C1(c2cccc(-n3cc4c(C(F)(F)F)cc(CN5CC6(CC6)C5)cn4c3=O)c2)CCC1` was < 100 nM

Recorded IC50 for COC[C@H]1C[C@@H]([C@H](c2cccc(-n3cc4c(C(F)(F)F)cc(CN5CCC[C@H](C)C5)cn4c3=O)c2)c2nncn2C)C1 (single isomer, unassigned) on CBL-B (Homo sapiens, UniProt Q13191) was 100 to 300 nM

# IC50 measured on CBL-B (Homo sapiens, UniProt Q13191) for item `Cn1cnnc1[C@@H](c1cccc(-n2cc3c(C(F)(F)F)cc(CN4CCCNS4(=O)=O)cn3c2=O)c1)C1CCC1` = < 100 nM

====

Property: IC50; scope: individual molecules
assay-system: CBL-B (Homo sapiens)
Construct: GST
assay-name: CBL-B TR-FRET IC50 screening (E1/E2 ubiquitination, Biotin-Ubiquitin, Anti GST-Tb donor / Streptavidin-d2 acceptor)
Type: biochemical
test-parameters: CBL-B 10 nM final; 11-point titration from 100 uM; binned A-F; read-out: CBL-B TR-FRET activity IC50

Recorded IC50 (molecule C[C@H]1CCCN(Cc2cc(C(F)(F)F)c3cn(-c4cccc([C@]5(c6nncn6C)C[C@@H](C)C5)c4)c(=O)n3c2)C1 (single isomer, unassigned) [Compound 60] ): < 100 nM

The recorded IC50 for `CN(CCO)C(=O)c1cc(C(F)(F)F)c2cn(-c3cccc(C4(Cc5nncn5C)COC4)c3)c(=O)n2c1` is 301 to 1000 nM

Just so you know, measured IC50 for `C[C@@H]1CN(Cc2cc(C(F)(F)F)c3cn(-c4cccc(C5(Cc6nncn6C)COC5)c4)c(=O)n3c2)CCC1(F)F` came out at 301 to 1000 nM

Short answer for `Cn1cnnc1CC1(c2cccc(-n3cc4c(C(F)(F)F)cc(CN5CCC[C@H](F)C5)cn4c3=O)c2)COC1` : IC50 was < 100 nM

Sure, the documented IC50 for `Cn1cnnc1CC1(c2cccc(-n3cc4c(C(F)(F)F)cc(C5CCN(CC(F)(F)F)CC5)cn4c3=O)c2)COC1` is 301 to 1000 nM

Value of measured IC50 for the entry CC(c1cc(C(F)(F)F)c2cn(-c3cccc(C4(Cc5nncn5C)COC4)c3)c(=O)n2c1)N1CCO[C@H](C)C1 (single isomer, unassigned) [Compound 157] : < 100 nM

====

assay-system: CBL-B (Homo sapiens, UniProt Q13191)
Construct: GST
assay-name: CBL-B TR-FRET IC50 screening (E1/E2 ubiquitination, Biotin-Ubiquitin, Anti GST-Tb donor / Streptavidin-d2 acceptor)
Format: biochemical
test-parameters: CBL-B 10 nM final; 11-point titration from 100 uM; binned A-F; read-out: CBL-B TR-FRET activity IC50
Measured IC50 by item

>>> print(df.to_string())
                                        mol     value
0  Cn1cnnc1[C@@H](c1cccc(-n2cc3c(C(F)(F)F)cc(CN4CC(C)(F)C4)cn3c2=O)c1)C1CCC1  < 100 nM

`Cn1cnnc1[C@@H](c1cccc(-n2cc3c(C(F)(F)F)cc(CN4CCc5ncsc5C4)cn3c2=O)c1)C1COC1` tested on CBL-B (Homo sapiens, UniProt Q13191) gave IC50: < 100 nM

Observed IC50, CBL-B (Homo sapiens, UniProt Q13191), `Cn1cnnc1[C@@H](c1cccc(-n2cc3c(C(F)(F)F)cc(CN4CC5(CCCC5)C4)cn3c2=O)c1)C1CCC1` : < 100 nM

The molecule `COc1cc(-n2cc3c(C(F)(F)F)cc(CN4CC5(CC5)C4)cn3c2=O)cc(C2(Cc3nncn3C)COC2)c1` , tested on CBL-B (Homo sapiens, UniProt Q13191), showed IC50 of < 100 nM

====

assay-system: CBL-B (Homo sapiens, UniProt Q13191)
Construct: GST
assay-name: CBL-B TR-FRET IC50 screening (E1/E2 ubiquitination, Biotin-Ubiquitin, Anti GST-Tb donor / Streptavidin-d2 acceptor)
Assay type: biochemical
test-parameters: second part of Table 2 (head 'Patent Cmpd No / Updated Activity'); same CBL-B TR-FRET IC50 bins A-F; read-out: Updated Activity
pIC50: −log10 of the molar value.
experimental-readout: pIC50

Completed entries (count: 6):
In [3]: df
Out[3]:
                                   molecule         value
0  C[C@H]1CCCN(Cc2cc(C(F)(F)F)c3cn(-c4cccc([C@@H](c5nncn5C5CC5)C5CCC5)c4)c(=O)n3c2)C1 (single isomer, unassigned)        < 5.00
1  CC(=O)N1CCC[C@@H](c2cc(C(F)(F)F)c3cn(-c4cccc([C@H](c5nncn5C)C5CCC5)c4)c(=O)n3c2)C1 (single isomer, unassigned)  6.52 to 7.00
2  COCCS(=O)(=O)N(C)Cc1cc(C(F)(F)F)c2cn(-c3cccc([C@H](c4nncn4C)C4CCC4)c3)c(=O)n2c1        > 7.00
3  Cn1cnnc1[C@@H](c1cc(F)cc(-n2cc3c(C(F)(F)F)cc(CN4CC(F)(F)C4)cn3c2=O)c1)C1CCC1 (single isomer, unassigned)  6.52 to 7.00
4  COC(=O)N1CCC(c2cc(C(F)(F)F)c3cn(-c4cccc([C@H](c5nncn5C)C5CCC5)c4)c(=O)n3c2)CC1  6.52 to 7.00
5  Cn1cnnc1C1(c2cccc(-n3cc4c(C(F)(F)F)cc(CN5CCC[C@H](C(F)(F)F)C5)cn4c3=O)c2)CC2(CC2)C1 (single isomer, unassigned)        > 7.00

Now look at this one.
The measured pIC50 associated with `Cn1cnnc1[C@H](c1cccc(-n2cc3c(C(F)(F)F)cccn3c2=O)c1)C1CCC1` reads > 7.00
